species on record: Rattus norvegicus; assay: DrugMatrix - Regimen: Daily Repeat; assay type: toxicity, organism-based, Sprague-Dawley; design: regimen Daily Repeat, gender Male, age 6-8 weeks; settings: in vivo, po, 0 mg/kg, 120 h, tissue Blood, route oral GAVAGE, dose level Control, time 5 day, vehicle 100 % WATER
measurement_type: LEUKOCYTE COUNT (x10E3/uL)
A number alone suffices; assume x10E3/uL.

>>> number("Cc1cc(NS(=O)(=O)c2ccc(N)cc2)no1")
12.45
>>> number("Nc1ccc(S(=O)(=O)Nc2ccnn2-c2ccccc2)cc1")
13.67
>>> number("CC1(C)S[C@@H]2[C@H](NC(=O)[C@H](N)c3ccc(O)cc3)C(=O)N2[C@H]1C(=O)O")
9.78

Turning now to a further record.
Form: compound = C[C@]12Cc3c[nH]nc3C[C@@H]1CC[C@@H]1[C@@H]2CC[C@@]2(C)[C@H]1CC[C@]2(C)O ; LEUKOCYTE COUNT = 8.73

----------
organism: Rattus norvegicus; assay: DrugMatrix - Regimen: Daily Repeat; type: toxicity, organism-based, Sprague-Dawley; set-up: regimen Daily Repeat, gender Male, age 6-8 weeks; details: in vivo, ip, 0 mg/kg, 120 h, tissue Blood, route intraperitoneal, dose level Control, time 5 day, vehicle 100 % SALINE
measurement_type: ABSOLUTE LYMPHOCYTE (cells/µL)
A number alone suffices; assume cells/µL.

Form: molecule = NCC[C@H](O)C(=O)N[C@@H]1C[C@H](N)[C@@H](O[C@H]2O[C@H](CN)[C@@H](O)[C@H](O)[C@H]2O)[C@H](O)[C@H]1O[C@H]1O[C@H](CO)[C@@H](O)[C@H](N)[C@H]1O ; ABSOLUTE LYMPHOCYTE = 6630

----------
ABSOLUTE SEGMENTED NEUTROPHIL for assorted compounds
organism: Rattus norvegicus; assay: DrugMatrix - Regimen: Daily Repeat; format: toxicity, organism-based, Sprague-Dawley; parameters: regimen Daily Repeat, gender Male, age 6-8 weeks; details: in vivo, po, 0 mg/kg, 120 h, tissue Blood, route oral GAVAGE, dose level Control, time 5 day, […]
A number alone suffices; assume CELLS/uL.

>>> number("COc1ccc2c(c1)c(CC(=O)OCC(=O)O)c(C)n2C(=O)c1ccc(Cl)cc1 [ACEMETACIN]")
1642
>>> number("Oc1c(Cl)cc(Cl)cc1Sc1cc(Cl)cc(Cl)c1O [BITHIONOL]")
1049.67
>>> number("COC1=CC(=O)C[C@@H](C)[C@]12Oc1c(Cl)c(OC)cc(OC)c1C2=O [GRISEOFULVIN]")
2551.33

Turning now to a further record.
Form: compound = CSc1ccc2c(c1)N(CCC1CCCCN1C)c1ccccc1S2 (centres undefined) [THIORIDAZINE] ; ABSOLUTE SEGMENTED NEUTROPHIL = 1499.17

----------
ALANINE AMINOTRANSFERASE for assorted compounds
species on record: Rattus norvegicus; test: DrugMatrix - Regimen: Daily Repeat; assay type: toxicity, organism-based, Sprague-Dawley; set-up: regimen Daily Repeat, gender Male, age 6-8 weeks; conditions: in vivo, po, 0 mg/kg, 120 h, tissue Plasma, route oral GAVAGE, dose level Control, time 5 day, vehicle 100 % WATER
A number alone suffices; assume u/L.

Solved cases (2 shown):
>>> number("CN1CCN(C(=O)OC2c3nccnc3C(=O)N2c2ccc(Cl)cn2)CC1 (stereo not given) [ZOPICLONE]")
50.17
>>> number("CC1COc2c(N3CCN(C)CC3)c(F)cc3c(=O)c(C(=O)O)cn1c23 (stereo not given) [OFLOXACIN]")
51.67

Form: compound = NC(=O)c1ncn([C@@H]2O[C@H](CO)[C@@H](O)[C@H]2O)n1 [RIBAVIRIN] ; ALANINE AMINOTRANSFERASE = 50

Form: compound = Fc1ccc([C@@H]2CCNC[C@H]2COc2ccc3c(c2)OCO3)cc1 [PAROXETINE] ; ALANINE AMINOTRANSFERASE = 60.5

Form: compound = NCC1(CC(=O)O)CCCCC1 [GABAPENTIN] ; ALANINE AMINOTRANSFERASE = 55.17

Form: compound = Clc1ccc(C(c2ccccc2Cl)C(Cl)Cl)cc1 (stereo not given) [MITOTANE] ; ALANINE AMINOTRANSFERASE = 55.33

Form: compound = COc1cc2c(N3CCN(C(=O)Nc4ccc(OC(C)C)cc4)CC3)ncnc2cc1OCCCN1CCCCC1 [TANDUTINIB] ; ALANINE AMINOTRANSFERASE = 44.67

Form: compound = CC(C)(S)[C@@H](N)C(=O)O [PENICILLAMINE] ; ALANINE AMINOTRANSFERASE = 50.5

Form: compound = CC(CCc1ccccc1)NCC(O)c1ccc(O)c(C(N)=O)c1 (stereo not given) [LABETALOL] ; ALANINE AMINOTRANSFERASE = 55.5

Form: compound = Cc1cc(NS(=O)(=O)c2ccc(N)cc2)no1 [SULFAMETHOXAZOLE] ; ALANINE AMINOTRANSFERASE = 59.5

----------
species on record: Rattus norvegicus; assay: DrugMatrix - Regimen: Daily Repeat; assay type: toxicity, organism-based, Sprague-Dawley; set-up: regimen Daily Repeat, gender Male, age 6-8 weeks; details: in vivo, po, 0 mg/kg, 120 h, tissue Plasma, route oral GAVAGE, dose level Control, time 5 day, vehicle 100 % WATER
measurement_type: GLUCOSE (mg/dL)
A number alone suffices; assume mg/dL.

Form: compound = CN1CCC[C@H]1c1cccnc1 ; GLUCOSE = 156.5

Form: compound = Nc1ccc(S(=O)(=O)Nc2ccnn2-c2ccccc2)cc1 ; GLUCOSE = 152.67

Form: compound = Fc1ccc([C@@H]2CCNC[C@H]2COc2ccc3c(c2)OCO3)cc1 ; GLUCOSE = 137

----------
species on record: Rattus norvegicus; assay: DrugMatrix - Regimen: Daily Repeat; format: toxicity, organism-based, Sprague-Dawley; set-up: regimen Daily Repeat, gender Male, age 6-8 weeks; settings: in vivo, po, 10 mg/kg, 72 h, tissue Blood, route oral GAVAGE, dose level Low, time 3 day, vehicle .5 % CMC
measurement_type: ABSOLUTE EOSINOPHIL (CELLS/uL)
A number alone suffices; assume CELLS/uL.

>>> number("CC(=O)O[C@]1(C(C)=O)CC[C@H]2[C@@H]3C=C(Cl)C4=CC(=O)CC[C@]4(C)[C@H]3CC[C@@]21C [CHLORMADINONE ACETATE]")
58.33
>>> number("COc1c(C)c2c(c(O)c1C/C=C(\\C)CCC(=O)OCCN1CCOCC1)C(=O)OC2 [MYCOPHENOLATE MOFETIL]")
76.67
>>> number("O=C1CN=C(c2ccccc2)c2cc([N+](=O)[O-])ccc2N1 [NITRAZEPAM]")
19

Turning now to a further record.
Form: molecule = NS(=O)(=O)c1cc2c(cc1Cl)NCNS2(=O)=O [HYDROCHLOROTHIAZIDE] ; ABSOLUTE EOSINOPHIL = 69

----------
organism: Rattus norvegicus; experiment: DrugMatrix - Regimen: Daily Repeat; type: toxicity, organism-based, Sprague-Dawley; parameters: regimen Daily Repeat, gender Male, age 6-8 weeks; details: in vivo, ip, 0 mg/kg, […], tissue Blood, route intraperitoneal, dose level Control, time 14 day, vehicle 100 % SALINE
measurement_type: ABSOLUTE SEGMENTED NEUTROPHIL

Form: compound = NCC[C@H](O)C(=O)N[C@@H]1C[C@H](N)[C@@H](O[C@H]2O[C@H](CN)[C@@H](O)[C@H](O)[C@H]2O)[C@H](O)[C@H]1O[C@H]1O[C@H](CO)[C@@H](O)[C@H](N)[C@H]1O ; ABSOLUTE SEGMENTED NEUTROPHIL = 2330 cells/µL

----------
organism: Rattus norvegicus; experiment: DrugMatrix - Regimen: Daily Repeat; type: toxicity, organism-based, Sprague-Dawley; design: regimen Daily Repeat, gender Male, age 6-8 weeks; details: in vivo, po, 10 mg/kg, 120 h, tissue Plasma, route oral GAVAGE, dose level Low, time 5 day, vehicle .5 % CMC
measurement_type: TOTAL PROTEIN (G/DL)
A number alone suffices; assume G/DL.

Form: compound = NS(=O)(=O)c1cc2c(cc1Cl)NCNS2(=O)=O [HYDROCHLOROTHIAZIDE] ; TOTAL PROTEIN = 5.83

Form: compound = CC(=O)O[C@]1(C(C)=O)CC[C@H]2[C@@H]3C=C(Cl)C4=CC(=O)CC[C@]4(C)[C@H]3CC[C@@]21C [CHLORMADINONE ACETATE] ; TOTAL PROTEIN = 6.27

Form: compound = O=C1CN=C(c2ccccc2)c2cc([N+](=O)[O-])ccc2N1 [NITRAZEPAM] ; TOTAL PROTEIN = 6.4

Form: compound = COc1c(C)c2c(c(O)c1C/C=C(\C)CCC(=O)OCCN1CCOCC1)C(=O)OC2 [MYCOPHENOLATE MOFETIL] ; TOTAL PROTEIN = 5.8
